The measured values listed here are drawn from PubChem BioAssay (NCI).

Test system: BT-549 breast
protocolDescription: NCI-60 one-dose screen, 48 h (100 = growth as untreated, 0 = no growth, -100 = all killed)
conditionNotes: 10 µM unless noted
About 83,000 compounds went through this panel and 20% of them were active in at least one assay; those are over-represented in the sample as a whole.
Measured growth accompanies every entry in the list below.
assayReadout: growth (%)

{"columns": ["molecule", "testedTarget", "measValue"],
 "data": [
  ["CC(C)(C#N)N1CCN(c2ccccc2Cl)CC1", "BT-549 breast", 98.1],
  ["COc1ccc(/C=C/C(=O)c2ccc(Nc3ncnc4ccccc34)cc2)cc1OC", "BT-549 breast", 56.3],
  ["CN1C2CCC1CN(c1cnc(C(=O)Nc3cc(F)cc4cccnc34)cn1)C2", "BT-549 breast", 70.7],
  ["CC(=O)Nc1ccc(S(=O)(=O)NC2CCCCC2)cc1", "BT-549 breast", 96.4],
  ["CS(=O)(=O)c1ccc(-c2cc3c(oc2=O)-c2ccccc2OC3O)cc1 (centres undefined)", "BT-549 breast", 107],
  ["CC(C)(C)OC(=O)N1C/C(=C\\c2ccoc2)C(=O)/C(=C/c2ccoc2)C1", "BT-549 breast", 102],
  ["O=c1nc2n(nc1/C=C/c1ccco1)CC(c1ccc(Cl)cc1)=NN2", "BT-549 breast", 84.1],
  ["CC[N+](CC)(CCCC(C)[N+]1(Cc2ccccc2)C(C)=CC=C1C)Cc1ccccc1 (centres undefined)", "BT-549 breast", 82.9],
  ["CC1=CC2(C)/C=C(C)/C=C\\CC(O)/C=C3/C=CC(=C4C(=O)OC2(CC1C)C4=O)OC3 (centres undefined)", "BT-549 breast", -17.1]
]}

====

System: OVCAR-3 ovarian
protocolDescription: NCI-60 one-dose screen, 48 h (100 = growth as untreated, 0 = no growth, -100 = all killed)
conditionNotes: 10 µM unless noted
About 83,000 compounds went through this panel and 20% of them were active in at least one assay; those are over-represented in the sample as a whole.
Mark True for growth under 80%, False if at or over.

{"columns": ["compound", "testedTarget", "assignedCategory"],
 "data": [
  ["COc1cc(COC(=O)CCCCC[P+](c2ccccc2)(c2ccccc2)c2ccccc2)c(OC)c2c1OCO2", "OVCAR-3 ovarian", "True"],
  ["CCC1(CC)NC(=O)c2c(c3ccc(Cl)c(Cl)c3n2C)C1C#N (centres undefined)", "OVCAR-3 ovarian", "False"],
  ["COc1ccc(-c2cnnc3c(-c4cccc(C(F)(F)F)c4)cnn23)cc1", "OVCAR-3 ovarian", "True"],
  ["CC(=O)O[C@H]1CC[C@@]2(C)[C@@H](CC[C@@H]3[C@@H]2CC[C@@]2(C)[C@H]3CC[C@]2(O)C(C)=O)C1", "OVCAR-3 ovarian", "False"],
  ["COc1cc(-c2cc(=O)oc3cc(O)ccc23)c(OC)c2c1OCO2", "OVCAR-3 ovarian", "False"],
  ["C/C(=C(/c1ccccc1)c1ccc(OCC(O)CN2CCOCC2)cc1)c1ccccc1 (centres undefined)", "OVCAR-3 ovarian", "False"],
  ["COc1ccc(NC(=O)c2sc3nc(C)c(C(=O)c4ccc(OC)cc4)cc3c2N)cc1", "OVCAR-3 ovarian", "True"],
  ["COc1ccc(C2CC(n3nnnc3-c3ccccc3)=NN2)cc1 (centres undefined)", "OVCAR-3 ovarian", "True"]
]}
